Tested on: SK-OV-3
assay-comment: Growth inhibitory potency against NTR-Transfected (nitroreductase) human ovarian cell line known as SKOV3-NTR neo cell line
Type: functional, cell-based
pIC50: −log10 of the molar value.
Could you label it Met if measured pIC50 is 5 or higher, and Not met otherwise?

### Prompt I'd appreciate it if you could say whether CS(=O)(=O)c1cc([N+](=O)[O-])c(N2CC2)cc1C(N)=O has pIC50 at least equal to 5.
### Response Met

* * *

Tested on: EMT6
assay-comment: Ratio of growth inhibition of NTR-transfected mouse mammary cell line to that of parental cell line (IC50 (NTR-)/IC50 (NTR+)
Assay type: functional
value-kind: Ratio
Keep it simple and answer with nothing but the number.

Before answering, review these 5 worked examples.
NC(=O)c1cc([N+](=O)[O-])cc([N+](=O)[O-])c1N1CC1	627
CC(=O)CCNC(=O)c1cc(N2CC2)c([N+](=O)[O-])cc1[N+](=O)[O-]	1520
CN(CCN1CCOCC1)C(=O)c1cc(N2CC2)c([N+](=O)[O-])cc1[N+](=O)[O-]	309
O=C(NCCN1CCOCC1)c1cc([N+](=O)[O-])cc([N+](=O)[O-])c1N1CC1	177
O=C(NCCN1CCOCC1)c1cc(N2CC2)c([N+](=O)[O-])cc1[N+](=O)[O-]	4020

The value of Ratio measured for the molecule CS(=O)(=O)c1cc([N+](=O)[O-])c(N2CC2)cc1C(=O)NCC(O)CO (stereo unspecified) turned out to be 32

Origin of measurements: ChEMBL document CHEMBL1148331
